Provenance of the data: paper PMC9407945

measured on: SARS-CoV-2 spike ectodomain (S-ecto), Wuhan-hu-1 strain, 2P (SARS-CoV-2, Wuhan-hu-1, UniProt P0DTC2, 2P mutation at residues 986 and 987 | 2P mutation at residues 986 and 987, biotin (NHS-sulfo-LC-Biotin, EZ-link biotinylation kit))
protocol summary: BLI
experimental conditions: both partners purified
readout label: Kd (nM)
Give the quantity in nM, number only.

Worked set:
binder	observed
humanized SW186 H1L3 (antibody, V domains shown) VH: QVQLVQSGAEVKKPGSSVKVSCKASGVAFSSYWMNWVRQAPGQGLEWMGQIYPGDGDTNYNGKFKGRVTITADKSTSTAYMELSSLRSEDTAVYYCARGFIATVEETMDYWGQGTLVTVSS VL: DIQMTQSPSSLSASVGDRVTITCRASQDISNYLNWYQQKPGKAPKLLIYYTSRLHSGVPSRFSGSGSGTDYTLTISSLQPEDFATYFCQQSHTLPWTFGGGTKLEIK	4.37
humanized SW186 H1L4 (antibody, V domains shown) VH: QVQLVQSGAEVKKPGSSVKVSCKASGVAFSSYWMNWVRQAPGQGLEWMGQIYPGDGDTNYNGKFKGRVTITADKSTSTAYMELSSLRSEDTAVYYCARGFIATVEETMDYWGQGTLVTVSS VL: DIQMTQSPSSLSASVGDRVTITCRASQDISNYLNWYQQKPGKTVKLLIYYTSRLHSGVPSRFSGSGSGTDYTLTISSLQPEDFATYFCQQSHTLPWTFGGGTKLEIK	5.03
humanized SW186 H4L4 (antibody, V domains shown) VH: QVQLVQSGAEVKKPGSSVKVSCKASGVAFSSYWMNWVKQAPGQGLEWIGQIYPGDGDTNYNGKFKGKATITADKSTSTAYMELSSLRSEDTAVYFCARGFIATVEETMDYWGQGTLVTVSS VL: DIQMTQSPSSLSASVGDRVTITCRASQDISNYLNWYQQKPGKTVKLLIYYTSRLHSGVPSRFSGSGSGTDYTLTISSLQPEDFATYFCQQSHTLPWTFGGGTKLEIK	1.57

Param item = humanized SW186 H2L1 (antibody, V domains shown) VH: QVQLVQSGAEVKKPGSSVKVSCKASGVAFSSYWMNWVRQAPGQGLEWIGQIYPGDGDTNYNGKFKGRVTITADKSTSTAYMELSSLRSEDTAVYFCARGFIATVEETMDYWGQGTLVTVSS VL: DIQMTQSPSSLSASVGDRVTITCRASQDISNYLNWYQQKPGKAPKLLIYYTSRLHSGVPSRFSGSGSGTDFTLTISSLQPEDFATYYCQQSHTLPWTFGGGTKLEIK ; retrieve measured Kd.
18.1

Param item = humanized SW186 H3L2 (antibody, V domains shown) VH: QVQLVQSGAEVKKPGSSVKVSCKASGVAFSSYWMNWVRQAPGQGLEWIGQIYPGDGDTNYNGKFKGRATITADKSTSTAYMELSSLRSEDTAVYFCARGFIATVEETMDYWGQGTLVTVSS VL: DIQMTQSPSSLSASVGDRVTITCRASQDISNYLNWYQQKPGKAPKLLIYYTSRLHSGVPSRFSGSGSGTDFTLTISSLQPEDFATYFCQQSHTLPWTFGGGTKLEIK ; retrieve measured Kd.
6.09
